measurement_target: TEC (Homo sapiens)
Sequence (P42680 whole entry): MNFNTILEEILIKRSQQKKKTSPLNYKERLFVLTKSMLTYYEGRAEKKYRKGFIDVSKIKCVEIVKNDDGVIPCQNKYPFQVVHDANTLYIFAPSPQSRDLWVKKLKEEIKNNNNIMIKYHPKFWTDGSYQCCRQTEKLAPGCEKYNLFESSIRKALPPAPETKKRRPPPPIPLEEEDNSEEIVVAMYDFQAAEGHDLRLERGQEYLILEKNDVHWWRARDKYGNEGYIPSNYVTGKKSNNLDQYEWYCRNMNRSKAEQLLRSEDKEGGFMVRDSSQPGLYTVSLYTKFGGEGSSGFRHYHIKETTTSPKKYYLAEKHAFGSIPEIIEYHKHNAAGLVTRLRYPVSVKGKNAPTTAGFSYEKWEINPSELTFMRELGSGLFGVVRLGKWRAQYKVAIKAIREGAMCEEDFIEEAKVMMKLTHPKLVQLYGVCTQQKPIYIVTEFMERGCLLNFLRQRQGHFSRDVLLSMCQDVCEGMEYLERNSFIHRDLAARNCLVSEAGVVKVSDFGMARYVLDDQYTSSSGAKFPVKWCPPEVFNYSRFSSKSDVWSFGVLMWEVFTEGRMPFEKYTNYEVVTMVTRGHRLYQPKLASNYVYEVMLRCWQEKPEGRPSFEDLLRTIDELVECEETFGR
method: Inhibition of a panel of kinases, in vitro HotSpot kinase assay: TEC
Assay type: biochemical
test_conditions: D-compounds panel data; 1 μM ATP
In this section we review reported IC50 values for a set of molecules.

molecule	IC50
C[C@@H]1[C@H](NC(=O)c2ccc(C3CC3)cc2)CCCN1c1cnc(C(N)=O)c(Nc2cnn(CCN(C)C)c2)n1	100 to 1000 nM

Form entry - test system: TEC (Homo sapiens); read-out: IC50; molecule: C[C@@H]1[C@H](NC(=O)c2ccc(C3CC3)nc2)CCCN1c1cnc(C(N)=O)c(Nc2ccc(OC3CCOCC3)cc2)n1
≤ 10 nM

Same question, C[C@@H]1[C@H](NC(=O)c2ccc(C3(CO)CC3)cc2)CCCN1c1cnc(C(N)=O)c(Nc2cnn(C)c2)n1 this time
≤ 10 nM

Same question, C[C@@H]1[C@H](NC(=O)c2ccc(C3CC3)nc2)CCCN1c1cnc(C(N)=O)c(Nc2cnn(C)c2)n1 this time
10 to 100 nM

Same question, C[C@@H]1[C@H](NC(=O)c2ccc(C(C)(O)CO)cc2)CCCN1c1cnc(C(N)=O)c(Nc2cnn(C)c2)n1 (single isomer, unassigned) [Example D-265] this time
≤ 10 nM

Same question, C[C@@H]1[C@H](NC(=O)c2ccc(C3CC3)cc2F)CCCN1c1cnc(C(N)=O)c(Nc2ccc(N3CCN(C)C[C@@H]3C)cc2)n1 this time
10 to 100 nM

====

measurement_target: ITK (Homo sapiens)
Sequence (Q08881 1-620): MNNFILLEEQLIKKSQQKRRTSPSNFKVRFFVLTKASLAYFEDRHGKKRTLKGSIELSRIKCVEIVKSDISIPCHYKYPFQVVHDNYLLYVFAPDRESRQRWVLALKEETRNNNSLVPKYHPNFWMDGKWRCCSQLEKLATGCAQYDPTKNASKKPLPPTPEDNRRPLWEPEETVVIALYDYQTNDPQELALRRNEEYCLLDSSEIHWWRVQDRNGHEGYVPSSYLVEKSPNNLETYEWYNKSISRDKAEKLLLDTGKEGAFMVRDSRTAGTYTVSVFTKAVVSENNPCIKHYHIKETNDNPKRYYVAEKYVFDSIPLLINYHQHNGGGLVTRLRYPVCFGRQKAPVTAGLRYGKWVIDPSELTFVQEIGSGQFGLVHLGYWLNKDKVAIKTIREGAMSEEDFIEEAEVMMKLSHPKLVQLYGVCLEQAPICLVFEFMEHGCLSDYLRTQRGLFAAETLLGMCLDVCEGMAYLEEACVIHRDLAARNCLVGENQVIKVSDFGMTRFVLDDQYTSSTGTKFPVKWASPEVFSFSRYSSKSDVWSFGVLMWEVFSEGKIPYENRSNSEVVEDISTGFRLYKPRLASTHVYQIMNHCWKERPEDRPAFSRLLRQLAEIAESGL
method: Inhibition of a panel of kinases, in vitro HotSpot kinase assay: ITK
Assay type: biochemical
test_conditions: D-compounds panel data; 1 μM ATP
pIC50: −log10 of the molar value.
endpoint_label: pIC50

molecule	pIC50
Cc1c(Nc2nc(N3CCC[C@@H](NC(=O)c4ccc(C5CC5)cc4)[C@H]3C)cnc2C(N)=O)cnn1C [Example D-271]	< 5.00
C/C=C/c1ccc(C(=O)N[C@@H]2CCCN(c3cnc(C(N)=O)c(Nc4cc(C)ns4)c3)[C@@H]2C)c(F)c1 [Example D-170]	< 5.00
C[C@@H]1[C@H](NC(=O)N(C)C)CCCN1c1cnc(C(N)=O)c(Nc2ccc(OC3CCN(C4CCCC4)CC3)cc2)n1 [Example D-102]	7.00 to 8.00

Continue with the next molecule.
Requested read-out: pIC50. Entry: C[C@@H]1[C@H](NC(=O)c2ccc(C3CC3)cc2)CCCN1c1cnc(C(N)=O)c(Nc2ccc(OC3CCCN(C)C3)cc2)n1 (stereo partly drawn) [Example D-105]
7.00 to 8.00
